Test system: WPMY1-TUBA1B-RELA
Method Description: phenotypically active (imaging signature differs from DMSO and reproducible) at any of 0.3-9 uM (binary (1 = active, 0 = inactive)); higher = active
Condition Notes: treatment time: 24 h
Structures can show the parent of a compound that is named as a salt.
Classes used: TRUE = active, FALSE = inactive

{"Molecule": "COc1ccc(CC2c3cc(OC)c(OC)cc3CC[N+]2(C)CCC(=O)OCCCCCOC(=O)CC[N+]2(C)CCc3cc(OC)c(OC)cc3C2Cc2ccc(OC)c(OC)c2)cc1OC (centres undefined) [Atracurium besilate]", "Class Name": "FALSE"}
{"Molecule": "CNC(=O)c1cc(Oc2ccc(NC(=O)Nc3ccc(Cl)c(C(F)(F)F)c3)cc2)ccn1", "Class Name": "TRUE"}
{"Molecule": "CC(C)[N@+]1(C)[C@@H]2CC[C@H]1C[C@@H](OC(=O)C(CO)c1ccccc1)C2 (some centres undefined)", "Class Name": "FALSE"}
{"Molecule": "CCC1(O)CC2CN(CCc3c([nH]c4ccccc34)C(C(=O)OC)(c3cc4c(cc3OC)N(C)C3C(O)(C(=O)OC)C(OC(C)=O)C5(CC)C=CCN6CCC43C65)C2)C1 (centres undefined) [Vinblastine sulfate]", "Class Name": "TRUE"}
{"Molecule": "CC1(C)CCC(c2ccc(Cl)cc2)=C(CN2CCN(c3ccc(C(=O)NS(=O)(=O)c4ccc(N[C@H](CCN5CCOCC5)CSc5ccccc5)c(S(=O)(=O)C(F)(F)F)c4)cc3)CC2)C1", "Class Name": "FALSE"}
{"Molecule": "C[C@H]1COCCN1c1cc(C2(S(=O)(=O)C3CC3)CC2)nc(-c2ccc(NC(=S)NCCO)cc2)n1", "Class Name": "TRUE"}
{"Molecule": "CCCN(CCC)CCc1cccc2c1CC(=O)N2", "Class Name": "FALSE"}
{"Molecule": "CC(CN(C)C)CN1c2ccccc2CCc2ccccc21 (centres undefined)", "Class Name": "FALSE"}
{"Molecule": "C/C(=N/NC(=N)N)c1ccc(NC(=O)Nc2ccc(/C(C)=N/NC(=N)N)cc2)cc1", "Class Name": "FALSE"}
{"Molecule": "Cc1c(-c2ccccc2)oc2c(C(=O)OCCN3CCCCC3)cccc2c1=O [flavoxate]", "Class Name": "FALSE"}
{"Molecule": "Nc1ncnc2c1nc(Cl)n2C1O[C@H](CO)[C@@H](O)[C@H]1O (some centres undefined)", "Class Name": "TRUE"}
{"Molecule": "CNC[C@H](O)c1ccc(O)c(O)c1 [epinephrine]", "Class Name": "FALSE"}
{"Molecule": "N#Cc1ccccc1OCC(O)CNCCNC(=O)Nc1ccccc1 (centres undefined)", "Class Name": "FALSE"}
{"Molecule": "NC[C@H](O)c1ccc(O)c(O)c1 [norepinephrine]", "Class Name": "FALSE"}
{"Molecule": "CC(C)[C@H](N)C(=O)OCC(CO)OCn1cnc2c(=O)[nH]c(N)nc21 (some centres undefined)", "Class Name": "FALSE"}
{"Molecule": "COc1ccc(S(=O)(=O)Nc2cccnc2Nc2ccc(O)cc2)cc1", "Class Name": "TRUE"}
{"Molecule": "CCCCCCCN(CC)CCCC(O)c1ccc(NS(C)(=O)=O)cc1 (centres undefined) [ibutilide]", "Class Name": "FALSE"}
{"Molecule": "CN(C)CCOC(c1ccc(Cl)cc1)c1ccccn1 (centres undefined)", "Class Name": "FALSE"}
{"Molecule": "Clc1ccc(C2(c3ccc(-c4cn[nH]c4)cc3)CCNCC2)cc1", "Class Name": "TRUE"}
{"Molecule": "COc1cc(N2CCC(N3CCN(C)CC3)CC2)ccc1Nc1ncnc(Nc2ccccc2S(=O)(=O)C(C)C)n1", "Class Name": "TRUE"}
{"Molecule": "CC(C)(C(=O)O)c1ccc(C(O)CCCN2CCC(C(O)(c3ccccc3)c3ccccc3)CC2)cc1 (centres undefined) [fexofenadine]", "Class Name": "FALSE"}
{"Molecule": "CC(C)c1nc(CN(C)C(=O)N[C@H](C(=O)N[C@@H](Cc2ccccc2)C[C@H](O)[C@H](Cc2ccccc2)NC(=O)OCc2cncs2)C(C)C)cs1", "Class Name": "FALSE"}
{"Molecule": "O=S(=O)(c1cccc2cnccc12)N1CCCNCC1", "Class Name": "TRUE"}
{"Molecule": "CC[C@H](C)[C@H](NC(=O)OCc1ccccc1)C(=O)N[C@@H](CCC(=O)OC(C)(C)C)C(=O)N[C@@H](C)C(=O)N[C@H](C=O)CC(C)C", "Class Name": "TRUE"}
{"Molecule": "O=C1Cc2cc(CCN3CCN(c4nsc5ccccc45)CC3)c(Cl)cc2N1", "Class Name": "FALSE"}
{"Molecule": "Nc1ncnc2c1c(COc1cccc(Cl)c1)nn2C1CCOCC1", "Class Name": "FALSE"}
{"Molecule": "O=C1N(c2ccccc2)c2ccccc2C1(Cc1ccncc1)Cc1ccncc1", "Class Name": "FALSE"}
{"Molecule": "O=C1c2c(O)ccc(O)c2C(=O)c2c(NCCNCCO)ccc(NCCNCCO)c21", "Class Name": "TRUE"}
{"Molecule": "O=C(/C=C/N1C[C@H]2C[C@@H]1CN2c1ccccn1)c1ccccc1O", "Class Name": "FALSE"}
{"Molecule": "COc1c(Cl)cc2c([nH]c3cnccc32)c1NC(=O)c1cccnc1C [ML 120B dihydrochloride]", "Class Name": "FALSE"}
{"Molecule": "CC(C(=O)O)c1ccc(C(=O)c2cccs2)cc1 (centres undefined)", "Class Name": "FALSE"}
{"Molecule": "OC[C@H]1O[C@@H](Oc2ccc(O)cc2)[C@H](O)[C@@H](O)[C@@H]1O", "Class Name": "FALSE"}
{"Molecule": "c1ccc(-c2cnn3cc(-c4ccc(OCCN5CCOCC5)cc4)cnc23)cc1", "Class Name": "FALSE"}
{"Molecule": "O=C(O)c1cc(/N=N/c2ccc(O)c(C(=O)O)c2)ccc1O", "Class Name": "FALSE"}

The reported numbers originate from the supplement of paper PMC7411054.
